Conditions: in n-propanol, 318.15 K
READOUT: solubility (mole fraction)
Just the number, please, no unit after it.

get_value(item= N#CCc1ccccc1[N+](=O)[O-] , readout=solubility (mole fraction)) returns 0.0333

###

Settings: in toluene, 323.15 K
READOUT: solubility (mole fraction)
Just the number, please, no unit after it.

get_value(item= N#CCc1ccccc1[N+](=O)[O-] , readout=solubility (mole fraction)) returns 0.241

###

Settings: in n-butanol, 283.15 K
READOUT: solubility (mole fraction)

get_value(item= N#CCc1ccccc1[N+](=O)[O-] , readout=solubility (mole fraction)) returns 0.00437

###

Conditions: in n-butanol, 303.15 K
READOUT: solubility (mole fraction)
Just the number, please, no unit after it.

get_value(item= N#CCc1ccccc1[N+](=O)[O-] , readout=solubility (mole fraction)) returns 0.0129
